- conditionLabel: human gut metagenome, 24 h, 2 µM; also: call rule not given here
reportedMetric: Bacterial Biotransformation

molecule | valueReported
CN(C)C(=O)Oc1cc(OC(=O)N(C)C)cc(C(O)CNC(C)(C)C)c1 (stereo unspecified) | Compound NOT metabolized
N#Cc1ccc2[nH]cc(CCCCN3CCN(c4ccc5oc(C(N)=O)cc5c4)CC3)c2c1 | Compound metabolized
CC(=O)Oc1ccc(C(c2ccc(OC(C)=O)cc2)c2ccccn2)cc1 | Compound metabolized
O=C(O)CCC(=O)O.O=C(O[C@H]1CN2CCC1CC2)N1CCc2ccccc2[C@@H]1c1ccccc1 [SOLIFENACIN SUCCINATE] | Compound NOT metabolized
CN1CCN2c3ccccc3Cc3ccccc3C2C1 (stereo unspecified) | Compound NOT metabolized
CC(C)(C)NCC(O)c1cc(Cl)c(N)c(Cl)c1 (stereo unspecified) | Compound NOT metabolized
CN1CCC(=C2c3ccccc3CC(=O)c3sccc32)CC1.O=C(O)/C=C/C(=O)O [KETOTIFEN FUMARATE] | Compound NOT metabolized
CC(NC(C)(C)C)C(=O)c1cccc(Cl)c1 (stereo unspecified) | Compound NOT metabolized
CCN(CC)CCNC(=O)c1ccc(NC(C)=O)cc1 [ACECAINIDE] | Compound NOT metabolized
O=C1CC2(CCCC2)CC(=O)N1CCCCN1CCN(c2ncccn2)CC1 | Compound metabolized
N#Cc1ccc2c(c1)N(CCCN1CCC(O)CC1)c1ccccc1S2 | Compound NOT metabolized
CC(C)C[C@H]1C(=O)N2CCC[C@H]2[C@]2(O)O[C@](NC(=O)[C@@H]3C=C4c5cccc6[nH]c(Br)c(c56)C[C@H]4N(C)C3)(C(C)C)C(=O)N12.CS(=O)(=O)O [BROMOCRIPTINE MESYLATE] | Compound metabolized
CCN1CCCC1CNC(=O)c1cc(S(=O)(=O)CC)c(N)cc1OC (stereo unspecified) [AMISULPRIDE] | Compound NOT metabolized
CN(C)CCc1c[nH]c2ccc(CS(=O)(=O)N3CCCC3)cc12 | Compound NOT metabolized
CC(=O)O[C@H]1C(=O)[C@@]2(C)[C@H]([C@H](OC(=O)c3ccccc3)[C@]3(O)C[C@H](OC(=O)[C@H](O)[C@@H](NC(=O)c4ccccc4)c4ccccc4)C(C)=C1C3(C)C)[C@]1(OC(C)=O)CO[C@@H]1C[C@@H]2O | Compound NOT metabolized
CC(=O)OCC(CCn1cnc2cnc(N)nc21)COC(C)=O | Compound metabolized
COc1ccc(Cc2nccc3cc(OC)c(OC)cc23)cc1OC | Compound metabolized
CCCC(C)(COC(N)=O)COC(=O)NC(C)C (stereo unspecified) | Compound metabolized
Br.COc1ccc2c(c1)[C@]13CCCC[C@@H]1[C@H](C2)N(C)CC3.O [DEXTROMETHORPHAN HYDROBROMIDE] | Compound NOT metabolized
Clc1cccc(Cl)c1N=C1NCCN1 | Compound NOT metabolized
C#C[C@]1(OC(C)=O)CC[C@H]2[C@@H]3CCC4=C[C@@H](OC(C)=O)CC[C@@H]4[C@H]3CC[C@@]21C [ETHYNODIOL DIACETATE] | Compound metabolized

---

- procedureText: The drug is tested on WLS-039 corresponding to human gut metagenome with ENA study accession number: PRJEB37062 and ENA sample accession number: ERS12561746 for biotransformation under anaerobic condition. The drug concentrations were measured over 9 timepoints collected between 0 and 24 hours of incubation by liquid-chromatography-coupled mass spectrometry (LC–MS)
- conditionLabel: 2 µM

compound | Bacterial Biotransformation
CC(C)NCC(O)COc1ccc(CC(N)=O)cc1 (stereo not drawn) [ATENOLOL] | Compound NOT metabolized
O=C1C(CC[S+]([O-])c2ccccc2)C(=O)N(c2ccccc2)N1c1ccccc1 (stereo not drawn) [SULFINPYRAZONE] | Compound metabolized
CN(C)CCC=C1c2ccccc2COc2ccccc21 [DOXEPIN] | Compound metabolized
Br.COc1ccc2c(c1)[C@]13CCCC[C@@H]1[C@H](C2)N(C)CC3.O [DEXTROMETHORPHAN HYDROBROMIDE] | Compound NOT metabolized
CCCCCNC(=N)N/N=C/c1c[nH]c2ccc(OC)cc12.O=C(O)/C=C\C(=O)O [TEGASEROD MALEATE] | Compound metabolized
COc1cc2nc(N3CCN(C(=O)C4COc5ccccc5O4)CC3)nc(N)c2cc1OC.CS(=O)(=O)O (stereo not drawn) [DOXAZOSIN MESYLATE] | Compound NOT metabolized
CN(C)C(=O)Oc1cccc([N+](C)(C)C)c1.[Br-] [NEOSTIGMINE BROMIDE] | Compound NOT metabolized
COc1ccc([C@@H]2Sc3ccccc3N(CCN(C)C)C(=O)[C@@H]2OC(C)=O)cc1 [DILTIAZEM] | Compound metabolized
CC12CC3CC(C)(C1)CC(N)(C3)C2 [MEMANTINE] | Compound metabolized
CSc1ccc2c(c1)C(N1CCN(C)CC1)Cc1ccccc1S2.O=C(O)/C=C\C(=O)O (stereo not drawn) | Compound metabolized
CC#CCn1c(N2CCC[C@@H](N)C2)nc2c1c(=O)n(Cc1nc(C)c3ccccc3n1)c(=O)n2C [LINAGLIPTIN] | Compound metabolized
CC(=O)O[C@H]1C(=O)[C@@]2(C)[C@H]([C@H](OC(=O)c3ccccc3)[C@]3(O)C[C@H](OC(=O)[C@H](O)[C@@H](NC(=O)c4ccccc4)c4ccccc4)C(C)=C1C3(C)C)[C@]1(OC(C)=O)CO[C@@H]1C[C@@H]2O [PACLITAXEL] | Compound metabolized
COc1ccccc1OCCNCC(O)COc1cccc2[nH]c3ccccc3c12 (stereo not drawn) [CARVEDILOL] | Compound metabolized
